Target: T1, human vascular endothelial growth factor receptor-2 Fc chimera (KDR-Fc) (human, UniProt P35968 20-764)
T1 construct: range 1-764; also called human VEGFR-2; not shown: human IgG1 Fc
T1 sequence (P35968 20-764 limits assumed, change not shown, form in doubt): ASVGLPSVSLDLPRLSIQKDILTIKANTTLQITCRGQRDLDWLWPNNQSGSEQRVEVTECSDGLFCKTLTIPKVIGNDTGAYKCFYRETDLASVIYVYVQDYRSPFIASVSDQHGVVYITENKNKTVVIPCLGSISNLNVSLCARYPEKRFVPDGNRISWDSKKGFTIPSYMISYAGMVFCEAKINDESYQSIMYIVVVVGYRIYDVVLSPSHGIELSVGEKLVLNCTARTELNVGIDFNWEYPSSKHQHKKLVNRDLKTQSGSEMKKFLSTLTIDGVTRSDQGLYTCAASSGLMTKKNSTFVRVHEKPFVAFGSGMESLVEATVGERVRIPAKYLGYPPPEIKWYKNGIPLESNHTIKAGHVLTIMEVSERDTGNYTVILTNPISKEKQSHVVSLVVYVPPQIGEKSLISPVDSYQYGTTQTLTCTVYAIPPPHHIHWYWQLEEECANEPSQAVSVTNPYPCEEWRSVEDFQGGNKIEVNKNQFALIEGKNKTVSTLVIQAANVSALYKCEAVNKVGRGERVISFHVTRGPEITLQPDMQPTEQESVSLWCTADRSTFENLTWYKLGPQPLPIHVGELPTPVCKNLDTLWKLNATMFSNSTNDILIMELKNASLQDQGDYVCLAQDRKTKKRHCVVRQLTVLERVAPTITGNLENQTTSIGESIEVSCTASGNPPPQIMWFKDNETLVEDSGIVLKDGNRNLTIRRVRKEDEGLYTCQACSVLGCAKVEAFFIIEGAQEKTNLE
Experiment: radioactive equilibrium binding assay, 1 nM KDR-Fc, % of input bound
Assign yes to entries whose Binding to 1 nM KDR, % meets or exceeds 30%; assign no to the rest.

Threshold query (Binding to 1 nM KDR, % >= 30%) on C10 (designed binder, 10Fn3 clone, Del 1-8) EVVAATPTSLLISWRHPHFPTRYYRITYGETGGNSPVQEFTVPLQPPTATISGLKPGVDYTITGYAVTVERNGRVLIIPISINYRT
no

Threshold query (Binding to 1 nM KDR, % >= 30%) on E20 (designed binder, 10Fn3 clone, Del 1-8) EVVAATPTSLLISWRHPHFPTRYYRITYGETGGNSPVQEFTVPLQPPTATISGLKPGVDYTITGYAVTVERNGQVLYTPISINYRT
yes

Threshold query (Binding to 1 nM KDR, % >= 30%) on F8 (designed binder, 10Fn3 clone, Del 1-8) EVVAATPTSLLISWRHPHFPTRYYRITYGETGGNSPVQEFTVPLQPPTATISGLKPGVDYTITGYAVTVEHNGRTSFTPISINYRT
yes

Threshold query (Binding to 1 nM KDR, % >= 30%) on G2 (designed binder, 10Fn3 clone, Del 1-8) EVVAATPTSLLISWRHPHFPTRYYRITYGETGGNSPVQEFTVPLQPPTATISGLKPGVDYTITGYAVTLERNNRELLTPISINYRT
no

Threshold query (Binding to 1 nM KDR, % >= 30%) on E28 (designed binder, 10Fn3 clone, Del 1-8) EVVAATPTSLLISWRHPHFPTRYYRITYGETGGNSPVQEFTVPLQPPTATISGLKPGVDYTITGYAVTLERNGRELMVPISINYRT
no

Threshold query (Binding to 1 nM KDR, % >= 30%) on EGE5 (designed binder, 10Fn3 clone, Del 1-8) EVVAATPTSLLISWRHPHFPTRYYRITYGETGGNSPVQEFTVPLQPPTATISGLKPGVDYTITGYAVTLERNGRVLNTPISINYRT
yes

Threshold query (Binding to 1 nM KDR, % >= 30%) on EGE3 (designed binder, 10Fn3 clone, Del 1-8) EVVAATPTSLLISWRHPHFPTRYYRITYGETGGNSPVQEFTVPLQPPTATISGLKPGVDYTITGYAVTVERNGRQLYTPISINYRT
yes
